From: paper PMC10786891

Target: T1, EsCas13d, nuclease-dead (Eubacterium siraeum, UniProt B0MS50, R295A;H300A;R849A;H854A)
T1 sequence: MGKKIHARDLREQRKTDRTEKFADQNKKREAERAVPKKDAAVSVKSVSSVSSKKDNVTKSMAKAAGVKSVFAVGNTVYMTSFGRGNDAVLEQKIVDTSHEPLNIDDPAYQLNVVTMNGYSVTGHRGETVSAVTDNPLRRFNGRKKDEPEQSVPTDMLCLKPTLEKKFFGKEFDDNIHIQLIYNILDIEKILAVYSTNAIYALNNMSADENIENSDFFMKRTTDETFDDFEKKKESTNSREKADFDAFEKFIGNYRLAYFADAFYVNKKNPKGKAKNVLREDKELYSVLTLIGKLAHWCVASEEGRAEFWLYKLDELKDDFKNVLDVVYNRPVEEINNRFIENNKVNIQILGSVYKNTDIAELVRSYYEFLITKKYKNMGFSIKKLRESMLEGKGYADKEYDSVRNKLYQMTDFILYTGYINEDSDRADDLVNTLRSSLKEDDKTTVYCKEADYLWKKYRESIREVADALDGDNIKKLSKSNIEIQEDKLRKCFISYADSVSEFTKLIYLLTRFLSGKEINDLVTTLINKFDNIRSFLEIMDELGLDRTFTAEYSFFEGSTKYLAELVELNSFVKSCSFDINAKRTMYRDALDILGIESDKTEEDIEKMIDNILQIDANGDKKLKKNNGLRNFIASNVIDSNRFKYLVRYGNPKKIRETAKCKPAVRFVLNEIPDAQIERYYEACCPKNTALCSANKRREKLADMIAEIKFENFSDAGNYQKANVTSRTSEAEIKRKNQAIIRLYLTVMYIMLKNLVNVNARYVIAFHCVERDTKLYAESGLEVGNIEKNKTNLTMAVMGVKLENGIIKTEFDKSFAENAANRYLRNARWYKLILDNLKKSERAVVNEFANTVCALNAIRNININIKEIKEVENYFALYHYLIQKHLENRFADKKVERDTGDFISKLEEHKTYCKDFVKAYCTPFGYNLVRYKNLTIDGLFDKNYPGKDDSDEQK
Test: crRNA (strand 1, pre-loaded); Mg2+; 40 mM Tris-HCl pH 7.5, 150 mM NaCl, 6 mM MgCl2, 1 mM DTT, 0.1% Tween-20, 0.2 mg/ml BSA; 25 C; 10 min per concentration, then washed
Conditions: tags: His6-TwinStrep-SUMO cleaved; N-terminal SNAP kept (SNAP-Surface 488); label: 3' end held by stalled T7 RNA polymerase
Give pKd for every item shown.
Kindly note that pKd refers to -log10 of the concentration in mol/L and answer with the value alone.

Notebook: target 2 MT 5'PFS GUA 3'PFS UCC (mixed) RNA 1: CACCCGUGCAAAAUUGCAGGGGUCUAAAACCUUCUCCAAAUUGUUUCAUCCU RNA 2: GGGAAUGGAUCCACAUCUACGAAUUCGUAAGGAUGAAACAAUUUGGAGAAGUCCAGAUCGGAAGAGCACACGU , pKd read as 7.54

Notebook: target 1 insA 3' of 10,insA 3' of 10 (mixed) RNA 1: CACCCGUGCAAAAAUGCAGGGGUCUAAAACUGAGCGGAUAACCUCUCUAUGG RNA 2: GGGAAUGGAUCCACAUCUACGAAUUCGUACCAUAGAGAGGUUAAAUCCGCUCACCGAGAUCGGAAGAGCACACGU , pKd read as 8.11

Notebook: target 1 U11G (mixed) RNA 1: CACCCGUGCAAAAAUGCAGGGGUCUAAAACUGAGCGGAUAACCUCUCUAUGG RNA 2: GGGAAUGGAUCCACAUCUACGAAUUCGUACCAUAGAGAGGGUAUCCGCUCACCGAGAUCGGAAGAGCACACGU , pKd read as 7.65

Notebook: target 1 insG 3' of 16,insU 3' of 4 (mixed) RNA 1: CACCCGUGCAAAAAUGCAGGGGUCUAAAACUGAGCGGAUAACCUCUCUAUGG RNA 2: GGGAAUGGAUCCACAUCUACGAAUUCGUACCAUAGAGGAGGUUAUCCGCUUCACCGAGAUCGGAAGAGCACACGU , pKd read as 7.86
